Quick reference for IC50 among some compounds
# tested system: Sodium-dependent serotonin transporter (Rattus norvegicus, UniProt P31652)
# Sequence (P31652 whole entry): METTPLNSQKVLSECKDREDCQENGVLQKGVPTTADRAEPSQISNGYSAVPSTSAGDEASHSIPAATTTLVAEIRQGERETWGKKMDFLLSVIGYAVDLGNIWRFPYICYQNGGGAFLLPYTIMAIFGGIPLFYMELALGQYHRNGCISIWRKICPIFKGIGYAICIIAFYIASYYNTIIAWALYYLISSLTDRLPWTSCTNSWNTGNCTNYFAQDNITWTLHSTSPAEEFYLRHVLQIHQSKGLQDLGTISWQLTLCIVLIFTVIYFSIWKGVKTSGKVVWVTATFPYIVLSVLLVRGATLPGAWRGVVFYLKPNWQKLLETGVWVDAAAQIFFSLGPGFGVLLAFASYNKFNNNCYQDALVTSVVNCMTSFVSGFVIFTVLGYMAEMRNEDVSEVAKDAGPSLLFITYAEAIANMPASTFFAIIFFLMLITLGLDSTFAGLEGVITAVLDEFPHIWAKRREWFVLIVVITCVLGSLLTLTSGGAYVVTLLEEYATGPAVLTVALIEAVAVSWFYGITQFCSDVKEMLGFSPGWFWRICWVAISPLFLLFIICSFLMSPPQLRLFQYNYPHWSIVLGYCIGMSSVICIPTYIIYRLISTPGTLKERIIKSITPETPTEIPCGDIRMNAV
# test description: Displacement of [3H]paroxetine from serotonin transporter in rat cortical membrane

{"compound": "CC(C)N1CCC(C(CN2CCN(CCCc3cccc(F)c3-c3ccccc3)CC2)c2ccc(F)cc2)CC1.Cl (racemic)", "property measured": "IC50", "test value": "3130 nM"}
{"compound": "CC(C)N1CCC(C(CN2CCN(CCCc3c(F)cccc3-c3ccccc3)CC2)c2ccc(F)cc2)CC1.Cl (racemic)", "property measured": "IC50", "test value": "723 nM"}
{"compound": "CC(C)N1CCC(C(CN2CCN(CCCc3ccccc3-c3ccccc3)CC2)c2ccc(F)cc2)CC1.Cl (racemic)", "property measured": "IC50", "test value": "953 nM"}
{"compound": "COc1ccc2ccccc2c1CCCCN1CCN(CC(c2ccc(F)cc2)C2CCN(C(C)C)CC2)CC1.Cl (racemic)", "property measured": "IC50", "test value": "877 nM"}
{"compound": "CC(C)N1CCC(C(CN2CCN(CCCc3ccccc3-c3cccc(F)c3)CC2)c2ccc(F)cc2)CC1.Cl (racemic)", "property measured": "IC50", "test value": "2140 nM"}

Proceeding to the next compound to report its IC50.
Give its IC50 value. Item: CC(C)N1CCC(C(CN2CCN(CCCc3ccccc3-c3ccc(F)cc3)CC2)c2ccc(F)cc2)CC1.Cl (racemic)
3940 nM
